system: Candida albicans; experiment: Antimicrobial activity against Candida albicans ATCC 64550 by broth microdilution method; type: functional
measure: MIC (µg/mL)
Numeric only. Scale: µg/mL

Q) // query MIC value for entry CCC(C)n1ncn(-c2ccc(N3CCN(c4ccc(OCC5COC(Cn6cncn6)(c6ccc(Cl)cc6Cl)O5)cc4)CC3)cc2)c1=O (stereo not given)
A) 1

Q) // query MIC value for entry C[C@@H](S[C@H]1CO[C@H](/C=C/c2ccc(C(F)(F)F)cc2)OC1)[C@](O)(Cn1cncn1)c1ccc(F)cc1F
A) 2

Q) // query MIC value for entry C[C@@H](C[C@H]1CO[C@H](/C=C/C=C/c2ccc(C(F)(F)F)cc2)OC1)[C@](O)(Cn1cncn1)c1ccc(F)cc1F.O=C(O)C(=O)O
A) 0.5

Q) // query MIC value for entry C[C@@H](S[C@H]1CO[C@H](/C=C/C=C/c2ccc(C(F)(F)F)cc2)OC1)[C@](O)(Cn1cncn1)c1ccc(F)cc1F.O=C(O)C(=O)O
A) 1

Q) // query MIC value for entry C[C@@H](C[C@H]1CO[C@H](/C=C/C=C/C=C/c2ccc(C(F)(F)F)cc2)OC1)[C@](O)(Cn1cncn1)c1ccc(F)cc1F.O=C(O)C(=O)O
A) 0.5

Q) // query MIC value for entry C[C@@H](C[C@H]1CO[C@H](c2ccc(C(F)(F)F)cc2)OC1)[C@](O)(Cn1cncn1)c1ccc(F)cc1F.O=C(O)C(=O)O
A) 0.5

Q) // query MIC value for entry C[C@@H](S[C@H]1CO[C@H](c2ccc(C(F)(F)F)cc2)OC1)[C@](O)(Cn1cncn1)c1ccc(F)cc1F
A) 1

Q) // query MIC value for entry C[C@@H](C[C@H]1CO[C@H](/C=C/c2ccc(C(F)(F)F)cc2)OC1)[C@](O)(Cn1cncn1)c1ccc(F)cc1F.O=C(O)C(=O)O
A) 1
